We begin with a simple list: items and their reported Degradation (%).
# procedure_text: stability of crystal forms (XRPD, HPLC, color)
# Format: physicochemical
# test_settings: 25°C/92.5%RH, open, 1 week
Report only the number, with the unit % understood.

{"columns": ["compound", "Degradation (%)"],
 "data": [
  ["NC(=O)[C@H]1CCCc2c1[nH]c1ccc(Cl)cc21 [Crystal form C]", 0.6],
  ["NC(=O)[C@H]1CCCc2c1[nH]c1ccc(Cl)cc21 [Crystal form D]", 0.6]
]}

We next turn to a different compound, shown below.
The compound listed as NC(=O)[C@H]1CCCc2c1[nH]c1ccc(Cl)cc21 [Crystal form E] shows Degradation (%) equal to 0.2

###

# procedure_text: stability of crystal forms (XRPD, HPLC, color)
# Type: physicochemical
# test_settings: 60°C, closed, 1 week
readout_kind: Purity (%)
Report only the number, with the unit % understood.

Some solved entries appear below for comparison.
{"columns": ["molecule", "val"],
 "data": [
  ["NC(=O)[C@H]1CCCc2c1[nH]c1ccc(Cl)cc21 [Crystal form E]", 96.4],
  ["NC(=O)[C@H]1CCCc2c1[nH]c1ccc(Cl)cc21 [Crystal form C]", 99.6],
  ["NC(=O)[C@H]1CCCc2c1[nH]c1ccc(Cl)cc21 [Crystal form F]", 99.8]
]}

The molecule listed as NC(=O)[C@H]1CCCc2c1[nH]c1ccc(Cl)cc21 [Crystal form A] shows Purity (%) equal to 99.8

The molecule listed as NC(=O)[C@H]1CCCc2c1[nH]c1ccc(Cl)cc21 [Crystal form D] shows Purity (%) equal to 98.7
